From: the RNAGym collection of RNA variant scans (doi:10.1021/acssynbio.7b00057)

B1: Pistol ribozyme (parent)
chain: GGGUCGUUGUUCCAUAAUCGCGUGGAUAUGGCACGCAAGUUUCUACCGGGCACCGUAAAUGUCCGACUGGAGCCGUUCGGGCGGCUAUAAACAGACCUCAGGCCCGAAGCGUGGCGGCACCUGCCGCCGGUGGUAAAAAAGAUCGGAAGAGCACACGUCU

variants of: B1; assay: aptazyme ON/OFF ratio, guanine; higher = stronger switching; co-transcriptional cleavage with and without guanine
Outcome measure: aptazyme ON/OFF ratio
Write no unit; give the number alone.

// query aptazyme ON/OFF ratio value for entry U7A U8A G9A C13U
1.22

// query aptazyme ON/OFF ratio value for entry U7G U8G U10G U11G C13A
1.62

// query aptazyme ON/OFF ratio value for entry U7A U8C G9A U10A U11G C12A
1.06

// query aptazyme ON/OFF ratio value for entry U7C G9U U10A U11G C12U C13A
1.09

// query aptazyme ON/OFF ratio value for entry U7C G9C U10A C12G C13A
1.07

// query aptazyme ON/OFF ratio value for entry U7C U8C G9A U10G U11G C12A C13U
1.15

// query aptazyme ON/OFF ratio value for entry U7G U10A U11G
1.71

// query aptazyme ON/OFF ratio value for entry U7C U8C G9C U10A
2.7

// query aptazyme ON/OFF ratio value for entry U7A U8C G9C U11G C12G
1.12

// query aptazyme ON/OFF ratio value for entry U7A G9C C12A C13U
1.1

// query aptazyme ON/OFF ratio value for entry U7C U8G G9C U11A C12G C13U
1.11

// query aptazyme ON/OFF ratio value for entry U7G G9U U10G U11C C12G C13U
1.36

// query aptazyme ON/OFF ratio value for entry U8C G9A U10G U11G C13U
1.09

// query aptazyme ON/OFF ratio value for entry U7A G9A U10A U11A C12U C13G
1.32

// query aptazyme ON/OFF ratio value for entry U7G U8G U10C U11A C13G
1.38

// query aptazyme ON/OFF ratio value for entry U7C G9C U10C C13G
1.04

// query aptazyme ON/OFF ratio value for entry U7G G9C U10G U11C C12G
1.32

// query aptazyme ON/OFF ratio value for entry U8G G9A U10G C12G C13A
1.52

// query aptazyme ON/OFF ratio value for entry U8G G9U U10G C13U
1.04

// query aptazyme ON/OFF ratio value for entry U8C U11C C12U C13U
1.33

// query aptazyme ON/OFF ratio value for entry U7A U8C G9U U10G C12A
1.53

// query aptazyme ON/OFF ratio value for entry U7G U8C G9C C12A C13A
1.15

// query aptazyme ON/OFF ratio value for entry U7C U8G G9A U10C U11A C12G C13A
1.07

// query aptazyme ON/OFF ratio value for entry U7C U8C U10G U11G C12G C13G
1.11

// query aptazyme ON/OFF ratio value for entry U7A U8C U11C C12U
1.46

// query aptazyme ON/OFF ratio value for entry U7C U8G G9U U11A C12G C13U
1.08

// query aptazyme ON/OFF ratio value for entry U7A U8G U10A U11C C12U C13G
1.41

// query aptazyme ON/OFF ratio value for entry U7C U8C G9C U11C C12U
1.32

// query aptazyme ON/OFF ratio value for entry U7C U10A U11G C13U
1.28

// query aptazyme ON/OFF ratio value for entry U7C G9C C12A
1.03

// query aptazyme ON/OFF ratio value for entry U7C U8A G9U U10C U11G C12A C13A
1.11

// query aptazyme ON/OFF ratio value for entry U7G G9C U10G C12G C13U
1.31

// query aptazyme ON/OFF ratio value for entry U7G U8C G9C U11G
1.33

// query aptazyme ON/OFF ratio value for entry U7A G9U C12U C13U
1.21

// query aptazyme ON/OFF ratio value for entry U7G U8G G9A U10C U11A C13G
1.1

// query aptazyme ON/OFF ratio value for entry U7A U8A G9C U10G C12U C13A
1.22

// query aptazyme ON/OFF ratio value for entry U7A G9C U10A C12U C13A
1.14

// query aptazyme ON/OFF ratio value for entry U7G U8A G9C U10G U11G C12U
1.32

// query aptazyme ON/OFF ratio value for entry U7C U8G G9A U10A U11C C13A
1.03

// query aptazyme ON/OFF ratio value for entry U7A G9C U11A C12A C13A
1.03

// query aptazyme ON/OFF ratio value for entry U7A G9U U10G U11A C12U C13G
1.16

// query aptazyme ON/OFF ratio value for entry U7C U8A G9U C12U C13G
1.14

// query aptazyme ON/OFF ratio value for entry U7C U8G G9C U10G U11G C12A C13U
1.14

// query aptazyme ON/OFF ratio value for entry U8C U10G U11C C12G C13G
1.17

// query aptazyme ON/OFF ratio value for entry U7C U8C G9C U10G U11G C12U C13G
1.09

// query aptazyme ON/OFF ratio value for entry U7G G9A U11A C12A
1.12

// query aptazyme ON/OFF ratio value for entry U7C U8G G9A U10A C12U
1.19

// query aptazyme ON/OFF ratio value for entry U7G U8A U10G U11A C12G C13A
1.11

// query aptazyme ON/OFF ratio value for entry U7C U8G G9C U10C U11A C12A C13A
1.08

// query aptazyme ON/OFF ratio value for entry U7C U8G G9A U10G
2.11

// query aptazyme ON/OFF ratio value for entry U7G U10C U11A C12U C13A
1.12

// query aptazyme ON/OFF ratio value for entry U7C U8C G9U U10C U11G C12G C13U
1.08

// query aptazyme ON/OFF ratio value for entry U7C U8C G9C U11C
1.43

// query aptazyme ON/OFF ratio value for entry U7A U8A G9A U10C U11A C12A C13U
1.13

// query aptazyme ON/OFF ratio value for entry U7G U8G U11C C12A C13U
1.26

// query aptazyme ON/OFF ratio value for entry U7A U8C G9U U11A C13A
1.13

// query aptazyme ON/OFF ratio value for entry U7G G9U U11A C12U C13A
1.25

// query aptazyme ON/OFF ratio value for entry U7C U8G G9A U10A U11A C13U
1.12

// query aptazyme ON/OFF ratio value for entry U7G U8C G9A U10C U11A C12U C13G
1.06

// query aptazyme ON/OFF ratio value for entry U8A G9C U10A U11G C13U
1.18

// query aptazyme ON/OFF ratio value for entry U7C U10C U11G C12G C13G
1.16

// query aptazyme ON/OFF ratio value for entry U8C G9U U11G C12U C13G
1.15

// query aptazyme ON/OFF ratio value for entry U7C G9A U10G C12U
1.33

// query aptazyme ON/OFF ratio value for entry U8A G9U U10C U11A C12A C13A
1.14

// query aptazyme ON/OFF ratio value for entry G9U U10A U11C C12G C13G
0.978

// query aptazyme ON/OFF ratio value for entry U7A U8G G9U U11C C12U C13A
1.17

// query aptazyme ON/OFF ratio value for entry U7A U8C G9C U10C C12U C13G
1.06

// query aptazyme ON/OFF ratio value for entry U7A U8G G9C U11A C12U C13A
1.4

// query aptazyme ON/OFF ratio value for entry U7G U8G U10C C12U C13G
1.42

// query aptazyme ON/OFF ratio value for entry U7C U8A G9C U10A U11G C12A C13G
1.12

// query aptazyme ON/OFF ratio value for entry U7A U8A G9C U11C C12G C13U
1.07

// query aptazyme ON/OFF ratio value for entry U8C U10G C13U
1.37

// query aptazyme ON/OFF ratio value for entry U7A U8A U11A C12U C13U
1.25

// query aptazyme ON/OFF ratio value for entry U7A U8C U10A U11A C12G C13A
1.11

// query aptazyme ON/OFF ratio value for entry U8C G9A U10G U11A
1.02

// query aptazyme ON/OFF ratio value for entry U7G U8A G9A U11A
1.45

// query aptazyme ON/OFF ratio value for entry U7G U8A U11A C12U
1.43

// query aptazyme ON/OFF ratio value for entry U7A U8C G9U U11A C12G C13A
1.14

// query aptazyme ON/OFF ratio value for entry U7A U8C U10C U11G C12U
1.3

// query aptazyme ON/OFF ratio value for entry U7A U8A G9C U11G C12G C13U
1.16

// query aptazyme ON/OFF ratio value for entry U7C G9A U10A C13G
1.03

// query aptazyme ON/OFF ratio value for entry U8C U10G C12A C13A
1.11

// query aptazyme ON/OFF ratio value for entry U7A U8C G9C U10G U11G C12U C13U
1.1

// query aptazyme ON/OFF ratio value for entry U7G U8C U10C U11A C13U
1.35

// query aptazyme ON/OFF ratio value for entry U7G U8G G9U U10A U11A C12U C13G
1.11

// query aptazyme ON/OFF ratio value for entry U8C G9A U10C U11A C12A
1.44

// query aptazyme ON/OFF ratio value for entry U7G G9A U10G C13A
1.11

// query aptazyme ON/OFF ratio value for entry U7G U8G G9A U10C U11A C12G C13A
1.04

// query aptazyme ON/OFF ratio value for entry U7C U8A G9A U11G C12G C13G
1.12

// query aptazyme ON/OFF ratio value for entry U7A U8A G9U U11C C12U
1.13

// query aptazyme ON/OFF ratio value for entry U7G U8A G9A U10G U11C C12U C13A
1.1
